Assay: Cytotoxicity against MT4 cells after 4 days by MTT method
Format: cell-based
Conditions: human
Could you please report measured CC50 at 96 h for the items listed next?
Output spec: scalar in µM, unitless text.

input: Param item = Cc1c(C(C#N)c2cccc3ccccc23)nc(SCC(=O)c2ccc(Cl)cc2)[nH]c1=O (stereo not given) ; retrieve measured CC50 at 96 h.
output: 148

input: Param item = Cc1c(C(C#N)c2cccc3ccccc23)nc(SCC(=O)c2ccccc2)[nH]c1=O (stereo not given) ; retrieve measured CC50 at 96 h.
output: 164

input: Param item = COc1ccc(CSc2nc(C(C#N)c3cccc4ccccc34)c(C(C)C)c(=O)[nH]2)cc1 (stereo not given) ; retrieve measured CC50 at 96 h.
output: 2.09

input: Param item = COc1ccc(CSc2nc(C(C#N)c3c(Cl)cccc3Cl)c(C(C)C)c(=O)[nH]2)cc1 (stereo not given) ; retrieve measured CC50 at 96 h.
output: 23.5

input: Param item = C#CCSc1nc(C(C#N)c2cccc3ccccc23)c(C)c(=O)[nH]1 (stereo not given) ; retrieve measured CC50 at 96 h.
output: 46.1

input: Param item = CCc1c(C(C#N)c2cccc3ccccc23)nc(SC2CCCC2)[nH]c1=O (stereo not given) ; retrieve measured CC50 at 96 h.
output: 51.9

input: Param item = "Cc1c(C(=O)c2ccccc2)nc(SC(C)C)[nH]c1=O" ; retrieve measured CC50 at 96 h.
output: 263

input: Param item = "CCc1c(C(=O)c2ccc3ccccc3c2)nc(SCc2ccccc2)[nH]c1=O" ; retrieve measured CC50 at 96 h.
output: 157

input: Param item = CCc1c(C(C#N)c2cccc3ccccc23)nc(SCC(=O)c2ccc(Cl)cc2)[nH]c1=O (stereo not given) ; retrieve measured CC50 at 96 h.
output: 117

input: Param item = CC(C)Sc1nc(C(C#N)c2cccc3ccccc23)cc(=O)[nH]1 (stereo not given) ; retrieve measured CC50 at 96 h.
output: 53.2
